All values here come from patent US20180127374A1.

Target: μ-opioid receptor (Homo sapiens)
Assay: μ-opioid receptor [35S]GTPγS functional assay
Format: biochemical
Set-up: purchased Perkin Elmer, Shelton, Conn
Conditions: μ-receptor membranes; read-out: GTPγS μ EC50
Description: [^35S]GTPγS functional assays were conducted using freshly thawed μ-receptor membranes (Perkin Elmer, Shelton, Conn.). […] Data were analyzed using the sigmoidal dose-response curve fitting functions in GraphPad PRISM v. […]
Each record here notes measured pEC50.
Units for pEC50: none; it is -log10 of a concentration expressed in mol/L.

Completed entries (count: 2):
CC(C)N1CC[C@@]2(CCCC(N)=O)c3cc(O)ccc3C[C@@H]1[C@@H]2C [Compound 17] : 7.17
C[C@H]1[C@H]2Cc3ccc(O)cc3[C@]1(CCCC(N)=O)CCN2CC1CC1 [Compound 20] : 8.50

Problem: State its pEC50 for this compound: COc1ccc2c(c1)[C@]1(CCNC(=O)c3ccc(C(=O)O)cc3)CCN(CC3CC3)[C@H](C2)[C@@H]1C [Compound 25]
Solution: 6.23

Problem: Return reported pEC50. Input compound: COc1ccc2c(c1)[C@@]1(CC(=O)O)CCN(CC3CC3)[C@@H](C2)[C@H]1C [Compound 29]
Solution: 6.46

Problem: Assign pEC50 to the following record: C[C@H](NC(=O)CCC[C@]12CCN(CC3CC3)[C@H](Cc3ccc(O)cc31)[C@@H]2C)C(N)=O [Compound 22]
Solution: 9.15

----------
Here the recorded pEC50 is given for each entry.
target: δ opioid receptor (Homo sapiens); test: δ-opioid receptor [35S]GTPγS functional assay; settings: δ membrane protein
Sequence (P41143 whole entry): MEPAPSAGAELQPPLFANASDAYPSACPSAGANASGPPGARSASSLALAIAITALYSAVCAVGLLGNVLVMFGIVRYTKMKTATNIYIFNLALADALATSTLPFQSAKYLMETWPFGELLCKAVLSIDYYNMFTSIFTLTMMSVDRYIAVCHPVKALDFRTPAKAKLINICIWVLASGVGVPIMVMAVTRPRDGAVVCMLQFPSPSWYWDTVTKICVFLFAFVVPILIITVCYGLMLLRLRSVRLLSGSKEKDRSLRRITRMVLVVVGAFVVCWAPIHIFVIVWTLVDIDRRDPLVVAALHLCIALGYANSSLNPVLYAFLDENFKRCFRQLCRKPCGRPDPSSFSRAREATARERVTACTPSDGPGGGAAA
pEC50 field: float, defined as -log10 of concentration (mol/L).

In the examples that follow, each entry is paired with its recorded pEC50.
COc1ccc2c(c1)[C@@]1(CCCc3ccco3)CCN(CC3CC3)C(C2)C1C (stereo in doubt) [Compound 15] : 6.85
CC(C)CN1CC[C@@]2(CCCC(N)=O)c3cc(O)ccc3C[C@@H]1[C@@H]2C [Compound 18] : 7.09

Problem: // fetch pEC50 given entry C[C@H]1[C@H]2Cc3ccc(O)cc3[C@]1(CCOc1cncc(C(=O)O)c1)CCN2CC1CC1 [Compound 16]
Solution: 8.61

----------
molecular target: κ opioid receptor (Homo sapiens, UniProt P41145); experiment: κ-opioid receptor [35S]GTPγS functional assay; assay type: biochemical; set-up: expressed in transfected cells; settings: κ membrane protein (in-house); read-out: GTPγS κ EC50
Sequence (P41145 whole entry): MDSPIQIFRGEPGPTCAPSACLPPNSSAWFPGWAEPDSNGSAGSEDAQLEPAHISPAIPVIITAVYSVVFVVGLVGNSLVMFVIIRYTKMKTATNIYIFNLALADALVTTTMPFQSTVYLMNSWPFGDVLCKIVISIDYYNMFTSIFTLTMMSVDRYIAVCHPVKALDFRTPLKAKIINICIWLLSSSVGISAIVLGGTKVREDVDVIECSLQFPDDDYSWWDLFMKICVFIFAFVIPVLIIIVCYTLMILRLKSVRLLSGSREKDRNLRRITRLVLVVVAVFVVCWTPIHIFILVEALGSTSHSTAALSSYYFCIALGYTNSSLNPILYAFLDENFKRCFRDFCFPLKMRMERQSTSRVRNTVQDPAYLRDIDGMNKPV
endpoint-label: pEC50
pEC50 is a log-scale quantity: -log10 of the concentration expressed in molar.

Examples with answers:
C[C@H](NC(=O)CCC[C@]12CCN(CC3CC3)[C@H](Cc3ccc(O)cc31)[C@@H]2C)C(N)=O : 7.88
CC(C)N1CC[C@@]2(CCCC(N)=O)c3cc(O)ccc3C[C@@H]1[C@@H]2C : 6.97

Turning now to a further record.
Problem: State its pEC50 for this compound: C[C@H]1[C@H]2Cc3ccc(O)cc3[C@]1(CCOc1ccc(C(=O)O)cc1)CCN2CC1CC1
Solution: 7.41

----------
target: κ opioid receptor (Homo sapiens); assay: κ-opioid receptor radioligand dose displacement binding assay; design: expressed in transfected cells; host or cells: HEK-293; conditions: [3H]-U69,593 displacement, HEK-293 membranes; read-out: Ki (nM) Opioid Receptor κ
endpoint-label: Ki (nM)
# unit: nM | format: bare number

Solved entries (count: 2):
C[C@H]1[C@H]2Cc3ccc(O)cc3[C@]1(CCOc1ccc(C(=O)O)cc1)CCN2CC1CC1 [Compound 28] : 5.75
COC(=O)/C=C/C[C@@]12CCN(CC3CC3)C(Cc3ccc(OC)cc31)[C@@H]2C [Compound 8] : 3.21

Problem: Find the measured Ki of C[C@H]1[C@H]2Cc3ccc(O)cc3[C@]1(CCCC(N)=O)CCN2CC1CC1 [Compound 20] and report it.
Solution: 0.08

Problem: Return reported Ki. Input compound: C[C@H]1[C@H]2Cc3ccc(O)cc3[C@]1(CCOc1cncc(C(=O)O)c1)CCN2CC1CC1 [Compound 16]
Solution: 12.6

Problem: Output Ki of C[C@H]1[C@H]2Cc3ccc(O)cc3[C@@]1(CCNC(=O)CN)CCN2CC1CC1 [Compound 31]
Solution: 0.07

----------
target: κ opioid receptor (Homo sapiens, UniProt P41145); assay: κ-opioid receptor radioligand dose displacement binding assay; design: expressed in transfected cells; host or cells: HEK-293; conditions: [3H]-U69,593 displacement; μM; read-out: Ki Opioid Receptor κ
endpoint-label: Ki

Problem: Answer with the recorded Ki for the compound listed here: COc1ccc2c(c1)[C@@]1(CC(=O)O)CCN(CC3CC3)[C@@H](C2)[C@H]1C
Solution: > 20 µM

----------
target: κ opioid receptor (Homo sapiens, UniProt P41145); test: κ-opioid receptor radioligand dose displacement binding assay; parameters: expressed in transfected cells; host or cells: HEK-293; details: [3H]-U69,593 displacement, HEK-293 membranes; read-out: Ki (nM) Opioid Receptor κ
endpoint-label: Ki (nM)
Unit nM implied. Number only.

Recorded Ki, per entry:
COc1ccc2c(c1)[C@]1(CCNC(=O)c3cccc(C(=O)O)c3)CCN(CC3CC3)[C@H](C2)[C@@H]1C : 130
COc1ccc2c(c1)[C@@]1(CCCC(=O)N[C@@H](C)C(N)=O)CCN(CC3CC3)C(C2)[C@@H]1C : 44
C[C@H]1[C@H]2Cc3ccc(O)cc3[C@]1(CCNC(=O)CN(C)C)CCN2CC1CC1 : 0.05
COc1ccc2c(c1)[C@@]1(CCCc3ccco3)CCN(CC3CC3)C(C2)C1C (stereo in doubt) : 2.11
COC(=O)CCC[C@]12CCN(CC3CC3)[C@H](Cc3ccc(O)cc31)[C@@H]2C : 0.07
CC(C)N1CC[C@@]2(CCCC(N)=O)c3cc(O)ccc3C[C@@H]1[C@@H]2C : 5

Read the next record carefully.
Problem: Provide κ opioid receptor (Homo sapiens, UniProt P41145) Ki reading for COC(=O)c1cccc(C(=O)NCC[C@]23CCN(CC4CC4)[C@H](Cc4ccc(OC)cc42)[C@@H]3C)c1 .
Solution: 0.51

----------
Molecular target: κ opioid receptor (Homo sapiens, UniProt P41145)
Test: κ-opioid receptor [35S]GTPγS functional assay
Assay type: biochemical
Design: expressed in transfected cells
Conditions: κ membrane protein (in-house); read-out: GTPγS κ EC50
Experimental: Functional [^35S]GTPγS binding assays were conducted as follows. κ opioid receptor membrane solution was prepared by sequentially adding final concentrations of 0.026 μg/μl κ membrane protein (in-house), 10 μg/mL saponin, 3 μM GDP and 0.20 nM [^35S]GTPγS to binding buffer (100 mM NaCl, 10 mM MgCl2, 20 mM HEPES, pH 7.4) on ice. […]
endpoint-label: pEC50
Scale: pEC50 equals -log10([C]), with [C] in mol/L.

Some solved entries appear below for comparison.
COc1ccc2c(c1)[C@]1(CCNC(=O)c3ccc(C(=O)O)cc3)CCN(CC3CC3)[C@H](C2)[C@@H]1C : 5.62
C[C@H]1[C@H]2Cc3ccc(O)cc3[C@]1(CCCC(N)=O)CCN2CC1CC1 : 8.22
COC(=O)[C@H](C)NC(=O)CCC[C@]12CCN(CC3CC3)[C@H](Cc3ccc(O)cc31)[C@@H]2C : 8.01

Problem: Fill in pEC50 for record C[C@H]1C2Cc3ccc(O)cc3[C@@]1(CCCC(N)=O)CCN2CC1CC1
Solution: 8.05

Problem: Check the records and state pEC50 for COc1ccc2c(c1)[C@@]1(CCCCNCC(C)C)CCN(CC3CC3)C(C2)[C@@H]1C
Solution: 7.24

----------
target: μ-opioid receptor (Homo sapiens, UniProt P35372); assay: μ-opioid receptor [35S]GTPγS functional assay; assay type: biochemical; set-up: purchased Perkin Elmer, Shelton, Conn
Sequence (P35372 whole entry, species assumed): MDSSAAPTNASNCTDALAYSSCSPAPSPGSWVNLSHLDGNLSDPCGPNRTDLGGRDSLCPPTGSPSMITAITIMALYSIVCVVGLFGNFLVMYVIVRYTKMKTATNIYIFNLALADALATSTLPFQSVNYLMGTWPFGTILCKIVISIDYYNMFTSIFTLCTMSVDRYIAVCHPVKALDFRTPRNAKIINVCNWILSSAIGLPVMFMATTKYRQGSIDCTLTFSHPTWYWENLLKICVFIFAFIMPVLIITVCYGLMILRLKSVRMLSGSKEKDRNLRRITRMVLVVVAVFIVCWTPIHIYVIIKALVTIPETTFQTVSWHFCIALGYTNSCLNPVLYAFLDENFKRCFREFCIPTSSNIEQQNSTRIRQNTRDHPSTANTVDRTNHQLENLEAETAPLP
The reader will find reported EC50 values listed item by item below.

Problem: In one line, give reported EC50 of the entry COc1ccc2c(c1)[C@@]1(CCC[C@H](O)CO)CCN(CC3CC3)C(C2)[C@@H]1C .
Solution: > 20 µM

Problem: Return EC50 for the following molecule: COc1ccc2c(c1)[C@@]1(C[C@H](O)CO)CCN(CC3CC3)C(C2)[C@@H]1C
Solution: > 20 µM

----------
Known Emax of a selection of compounds
target: μ-opioid receptor (Homo sapiens); experiment: μ-opioid receptor [35S]GTPγS functional assay; assay type: biochemical; design: purchased Perkin Elmer, Shelton, Conn; settings: relative to the effect elicited by DAMGO
Record the value in %, omitting the unit from your answer.

C[C@H]1[C@H]2Cc3ccc(O)cc3[C@]1(CCNC(=O)CN(C)C)CCN2CC1CC1 : 82.2

Problem: Output Emax of COc1ccc2c(c1)[C@@]1(CCCc3ccco3)CCN(CC3CC3)C(C2)C1C (stereo in doubt)
Solution: 34.6

----------
molecular target: κ opioid receptor (Homo sapiens, UniProt P41145); test: κ-opioid receptor [35S]GTPγS functional assay; type: biochemical; set-up: expressed in transfected cells; settings: κ membrane protein (in-house); read-out: GTPγS κ EC50
endpoint-label: EC50 (nM)
# output: bare number, implied unit nM

C[C@H]1C2Cc3ccc(O)cc3[C@@]1(CCCC(=O)O)CCN2CC1CC1 [Compound 4] : 24.8
COc1ccc2c(c1)[C@]1(CCOc3ccc(C(=O)O)cc3)CCN(CC3CC3)[C@H](C2)[C@@H]1C [Compound 27] : 3690
COc1ccc2c(c1)[C@]1(CCNC(=O)c3cccc(C(=O)O)c3)CCN(CC3CC3)[C@H](C2)[C@@H]1C [Compound 24] : 664

Problem: Output reported EC50 of the compound COc1ccc2c(c1)[C@@]1(CCCC(=O)O)CCN(CC3CC3)C(C2)[C@@H]1C [Compound 3] on κ opioid receptor (Homo sapiens, UniProt P41145).
Solution: 3470
